target: human GcgR (Homo sapiens); test: Functional cAMP activity in the presence of 1% HSA; format: cell-based; conditions: read-out: cAMP Rel EC50, hGcgR
Sequence (P47871 26-477): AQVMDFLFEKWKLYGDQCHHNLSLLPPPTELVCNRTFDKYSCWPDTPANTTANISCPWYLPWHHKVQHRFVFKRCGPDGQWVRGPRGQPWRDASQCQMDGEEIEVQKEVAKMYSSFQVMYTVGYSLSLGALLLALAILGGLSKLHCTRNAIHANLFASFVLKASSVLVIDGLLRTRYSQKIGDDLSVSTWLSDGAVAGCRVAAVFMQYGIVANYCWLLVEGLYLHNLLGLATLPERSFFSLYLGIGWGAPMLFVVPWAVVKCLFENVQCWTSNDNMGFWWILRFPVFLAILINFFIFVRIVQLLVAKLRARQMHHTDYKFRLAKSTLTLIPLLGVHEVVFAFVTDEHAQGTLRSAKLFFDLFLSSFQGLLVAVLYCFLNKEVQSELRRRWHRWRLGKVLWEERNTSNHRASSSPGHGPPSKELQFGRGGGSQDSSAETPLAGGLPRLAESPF
Starred links: 1 amine or outer side, 2 acyl side, 3 side chain; linkers in the order of their positions; H or OH if unused. Non-standard residues stand in square brackets, D forms with d. Groups on a side chain read outwards from the residue. No end group written: not given here. *: point of attachment. C20 diacid = O=C(O)CCCCCCCCCCCCCCCCCCC(=O)*; C18 diacid = O=C(O)CCCCCCCCCCCCCCCCC(=O)*; αMePhe(2-F) = C[C@](N)(Cc1ccccc1F)C(=O)O; γGlu = O=C(O)[C@H](CCC(=O)[*:2])N[*:1]; αMe4Pal = C[C@](N)(Cc1ccncc1)C(=O)O; αMeY = C[C@](N)(Cc1ccc(O)cc1)C(=O)O; 4Pal = N[C@@H](Cc1ccncc1)C(=O)O; αMeL = CC(C)C[C@](C)(N)C(=O)O; αMeS = C[C@](N)(CO)C(=O)O; Orn = NCCC[C@H](N)C(=O)O; AEEA = NCCOCCOCC(=O)O; Aib = CC(C)(N)C(=O)O
Please provide measured EC50 for the entries that follow.
Answers are plain numbers, in nM.

Please fill in: EC50 reported for H-Y[Aib]QGTFTSD[4Pal]SQ[αMeL]LDKK([AEEA-γGlu-C18 diacid])AQ[αMe4Pal]AFIEYLIE[Aib]GESSGAPPPSGE-NH2 [Example 227] = 937

// batch mode: one EC50 value per listed entry
1. H-Y[Aib]QGTFTSDYSI[αMeL]LDKQAAK([AEEA-AEEA-γGlu-C20 diacid])AFVEWLLAGGPSSGEPPPSEG-NH2 [Example 305]
2. Y[Aib]QGTFTSD[4Pal]SQ[αMeL]LDKK([dE-γGlu-dE-C18 diacid])AQ[αMe4Pal]AFIEYLIE[Aib]GPSSGAPPPSGS-NH2 [Example 923]
3. H-Y[Aib]QGT[αMePhe(2-F)]TSD[4Pal][αMeS]I[αMeL]LD[Orn]K([AEEA-γGlu-C18 diacid])AA[Aib]EFI[dE][αMeY]LIEGGPSSGAPPPSGTGQ-OH [Example 724]
4. H-Y[Aib]QGT[αMePhe(2-F)]TSD[4Pal]SI[αMeL]LD[Orn]K([AEEA-γGlu-C18 diacid])AQ[αMe4Pal]EFI[dE][αMeY]LIEGGPSSGAPPPSGS-NH2 [Example 640]

-- reply
1: 1500; 2: 1840; 3: 209; 4: 730

The reported measurements were obtained from patent US20240270821A1.
